System: Ipomoea hederacea (IPOHE)
Experiment: Experiment B1 glasshouse herbicide test, pre- and post-emergence, percentage damage
Type: in vivo
Conditions: PRE Application (pre-emergence, after cultivation for one day), 1000 g/h, evaluated after 13 days
Reported percentage damage caused to the plant, five point scale, IPOHE values follow for various compounds

Illustrative cases are given below, each with its answer.
>>> df
                                   compound         result
0  CSc1c(C(=O)Nc2nnnn2C)cc2cccnc2c1-c1ccccc1 [Compound 1.032]  5 (5=80-100%)
1  Cn1nnnc1NC(=O)c1cc2cc(F)cnc2c(-c2ccccc2)c1C(F)(F)F [Compound 1.007]  5 (5=80-100%)
2  CCCn1nnnc1NC(=O)c1cc2cccnc2c(-c2ccccc2)c1C(F)(F)F [Compound 1.003]   2 (2=20-39%)

Kindly review the next compound as well.
stdin: Please look up its percentage damage caused to the plant, five point scale, IPOHE: Cn1nnnc1NC(=O)c1cc2cccnc2c(-c2ccccc2)c1Cl [Compound 1.011]
stdout: 5 (5=80-100%)
